system: PC-14; experiment: relative viability (nuclei count vs DMSO), 5 days (fraction); higher = more cells survive; conditions: first compound 4 µM
measurementLabel: relative viability

Clc1ccc(Nc2nnc(Cc3ccncc3)c3ccccc23)cc1 [Vatalanib] + Cc1nc(Nc2ncc(C(=O)Nc3c(C)cccc3Cl)s2)cc(N2CCN(CCO)CC2)n1 [Dasatinib] (partner 0.075 µM) ... 0.245
Clc1ccc(Nc2nnc(Cc3ccncc3)c3ccccc23)cc1 [Vatalanib] + C[C@]1(O)C[C@@H](c2nc(-c3ccc4ccc(-c5ccccc5)nc4c3)c3c(N)nccn32)C1 [Linsitinib] (partner 1 µM) ... 0.871

Lab note: next compound to report on.
Lab note: measured relative viability of Clc1ccc(Nc2nnc(Cc3ccncc3)c3ccccc23)cc1 [Vatalanib] + Nc1nc2[nH]cc(CCc3ccc(C(=O)N[C@@H](CCC(=O)O)C(=O)O)cc3)c2c(=O)[nH]1 [Pemetrexed] (partner 0.2 µM) was 0.129
